Molecular target: T1, KGF (hKGF) (Homo sapiens, UniProt P21781 P21781:32-194)
T1 sequence: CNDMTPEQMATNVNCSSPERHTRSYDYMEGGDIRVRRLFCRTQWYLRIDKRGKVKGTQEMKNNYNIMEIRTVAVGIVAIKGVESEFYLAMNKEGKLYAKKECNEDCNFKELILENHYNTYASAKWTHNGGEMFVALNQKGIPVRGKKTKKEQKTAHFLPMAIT
Assay: filter; biphasic, high affinity 43%; Kd2 2.55 nM
Settings: tags: Upstate Biotechnology; label: 32P
endpoint_label: pKd
Scale for pKd: -log10 of concentration given in mol/L; no unit attached.

Documented pKd of 26F (ssRNA, 2'-F pyrimidines) RNA: GGGAGGACGAUGCGGUCAAGCUUAACAGUCUGGCAAUGGCCAUUAUGGCGCCCCAGACGACUCGCCCGA : 9.64
